# Tested on: Prunus dulcis
# Method summary: Inhibition of almonds beta-glucosidase using D-(-)salicin as substrate at 100 uM preincubated for 10 mins prior substrate addition measured after 10 mins by UV-Vis spectrophotometry
Calls of active or inactive are those of the source. The rule behind the calls is not given here.
Readout: inhibition

// known answers, use as guide
> print(dat)
                                smiles.code     readout    result
1  O=C1c2cccnc2S[C@H]2[C@@H](O)[C@@H](O)[C@H](O)CN12  inhibition       35%
2  O=C1c2ccccc2S[C@H]2[C@H](O)[C@H](O)[C@H](O)CN12  inhibition  inactive
3  O=C1CS[C@H]2[C@H](O)[C@H](O)[C@H](O)CN12  inhibition       23%
4  O=C1CS[C@@H]2[C@@H](O)[C@@H](O)[C@H](O)CN12  inhibition  inactive
5  O=C1c2ccccc2S[C@@H]2[C@@H](O)[C@@H](O)[C@H](O)CN12  inhibition  inactive

Consider the record given below.
Give inhibition (Prunus dulcis) of the following compound: O=C1CS[C@@H]2[C@H](O)[C@H](O)[C@H](O)CN12
inactive

---

# System: Prunus dulcis
# Method summary: Inhibition of almonds beta-glucosidase using D-(-)salicin as substrate at 100 uM preincubated for 10 mins prior substrate addition measured after 10 mins by UV-Vis spectrophotometry
Calls of active or inactive are those of the source. The rule behind the calls is not given here.
Readout: inhibition

// known answers, use as guide
> print(dat)
                                smiles.code    result
1  O=C1c2cccnc2S[C@@H]2[C@H](O)[C@H](O)[C@H](O)CN12  inactive
2  O=C1c2cccnc2S[C@H]2[C@H](O)[C@H](O)[C@H](O)CN12  inactive
3  O=C1CCS[C@@H]2[C@@H](O)[C@@H](O)[C@H](O)CN12  inactive
4  O=C1c2ccccc2S[C@@H]2[C@H](O)[C@H](O)[C@H](O)CN12  inactive
5  O=C1c2cccnc2S[C@@H]2[C@@H](O)[C@@H](O)[C@H](O)CN12       19%
6  O=C1CCS[C@H]2[C@H](O)[C@H](O)[C@H](O)CN12       18%
7  O=C1c2ccccc2S[C@H]2[C@@H](O)[C@@H](O)[C@H](O)CN12  inactive
8  O=C1CCS[C@H]2[C@@H](O)[C@@H](O)[C@H](O)CN12  inactive
9  O=C1CS[C@H]2[C@@H](O)[C@@H](O)[C@H](O)CN12       19%

Consider the record given below.
# inhibition lookup, item O=C1CCS[C@@H]2[C@H](O)[C@H](O)[C@H](O)CN12
inactive
